Numbers sourced from patent US20240317744A1.

# tested.target: pseudo-kinase domain (JH2, amino-acids 536-812) of human V617F mutant JAK2 (Homo sapiens, UniProt O60674, F794H/V617F/W659A/W777A)
# Construct: pseudo-kinase domain (JH2, amino-acids 536-812 with 3 surface mutations W659A, W777A, F794H); His (C)
# Sequence (O60674 536-812 V617F/W659A/W777A/F794H): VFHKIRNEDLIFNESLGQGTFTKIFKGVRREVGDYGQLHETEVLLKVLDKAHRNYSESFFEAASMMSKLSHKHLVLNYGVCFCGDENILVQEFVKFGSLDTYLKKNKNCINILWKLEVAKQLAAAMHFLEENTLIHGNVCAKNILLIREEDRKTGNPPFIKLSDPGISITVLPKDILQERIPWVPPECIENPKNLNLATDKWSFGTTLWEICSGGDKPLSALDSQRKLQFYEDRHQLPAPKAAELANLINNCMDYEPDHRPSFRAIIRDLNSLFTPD
# protocol.description: JAK2 LanthaScreen JH2-V617F Binding Assay
# study.conditions: JAK2 JH2-V617F 0.26 nM, 50 nM tracer, 1 hour at 25° C.; read-out: JH2 BIND V617F
pIC50: −log10 of the molar value.
Consider the following molecules; for each one, report its pIC50.

Tell me pIC50 reported for COC(=O)Nc1cc(Nc2cc3c(cn2)n(C)c(=O)n3C2[C@H]3CN(C(=O)OC)C[C@@H]23)cc(-c2cnn(C)c2)c1 (some centres unmarked)
6.30 to 7.00

Tell me pIC50 reported for [2H]C([2H])([2H])n1c(=O)n([C@@H]2CC[C@@H](NC(=O)OC)C2)c2cc(Nc3ccc4c(n3)c(-c3cnn(C(F)(F)F)c3)cn4CC(C)(C)O)ncc21
≥ 8.00

Tell me pIC50 reported for COC(=O)N[C@@H]1CC[C@@H](n2c(=O)n(C)c3cnc(Nc4cccc(C(=O)N5CCCCC5)n4)cc32)C1
6.30 to 7.00

Tell me pIC50 reported for COC(=O)N[C@@H]1CC[C@@H](n2c(=O)n(C)c3cnc(Nc4ccc5ncc(-c6cnn(C)c6)n5n4)cc32)C1
≥ 8.00

Tell me pIC50 reported for [2H]C1(NC(=O)OC)CC[C@@H](n2c(=O)n(C([2H])([2H])[2H])c3cnc(Nc4ccc5nn(CC6(C#N)CC6)c(-c6cnn(C(F)(F)F)c6)c5n4)cc32)C1 (some centres unmarked)
≥ 8.00

Tell me pIC50 reported for COC(=O)N[C@@H]1CC[C@@H](n2c(=O)n(C)c3cnc(Nc4ccnc(N5CCC6(CC6)C5)n4)cc32)C1
≥ 8.00

Tell me pIC50 reported for [2H]C([2H])([2H])n1c(=O)n([C@@H]2CC[C@@H](NC(=O)OC)C2)c2cc(Nc3cc(C(C)(C)O)cc(-c4cnc(C(F)(F)F)s4)n3)ncc21
≥ 8.00

Tell me pIC50 reported for [2H]C([2H])([2H])n1c(=O)n([C@@H]2CC[C@@H](NC(=O)OC)C2)c2cc(Nc3cc(COC4CCC4)cc(-c4ccc5c(c4)OCCO5)n3)ncc21
7.00 to 8.00

Tell me pIC50 reported for COC(=O)N[C@@H]1CC[C@@H](n2c(=O)n(C)c3cnc(Nc4cccc(-c5ccc6c(c5)OCCO6)n4)cc32)C1
≥ 8.00

Tell me pIC50 reported for COC(=O)N[C@@H]1CC[C@@H](n2c(=O)n(C)c3cnc(Nc4ccc(F)c(-c5ccc(C(F)(F)F)nc5)n4)cc32)C1
≥ 8.00

Tell me pIC50 reported for COC(=O)N[C@@H]1CC[C@@H](n2c(=O)n(C)c3cnc(Nc4ccc5cc(-c6cnn(C)c6)ccc5n4)cc32)C1
6.30 to 7.00

Tell me pIC50 reported for [2H]C([2H])([2H])n1c(=O)n([C@@H]2CC[C@@H](NC(=O)OC)C2)c2cc(Nc3cc(C(=O)N4CC5CC4CO5)c4cccc(C(F)(F)F)c4n3)ncc21 (some centres unmarked)
≥ 8.00

Tell me pIC50 reported for [2H]C([2H])([2H])n1c(=O)n([C@@H]2CC[C@@H](NC(=O)OC)C2)c2cc(Nc3cc(C(=O)N4CCOCC4)c4cccc(C(F)(F)F)c4n3)ncc21
≥ 8.00

Tell me pIC50 reported for COC(=O)Nc1cc(Nc2cc3c(cn2)n(C)c(=O)n3C2CC3(C2)CN(C(=O)OC)C3)cc(-c2cnn(C)c2)c1
6.30 to 7.00

Tell me pIC50 reported for [2H]C([2H])([2H])n1c(=O)n([C@@H]2CC[C@@H](NC(=O)OC)C2)c2cc(Nc3cc(CN4CC[C@H](F)C4)cc(-c4ccc5c(c4)OCCO5)n3)ncc21
≥ 8.00

Tell me pIC50 reported for [2H]C1(NC(=O)OC)CC[C@@H](n2c(=O)n(C([2H])([2H])[2H])c3cnc(Nc4ccc5c(n4)c(-c4cnn(C(F)(F)F)c4)cn5C4CCOCC4)cc32)C1 (some centres unmarked)
≥ 8.00

Tell me pIC50 reported for [2H]C([2H])([2H])n1c(=O)n([C@@H]2CC[C@](C)(NC(C)=O)C2)c2cc(Nc3cc(C(C)(C)O)cc(-c4cnc(OCC)s4)n3)ncc21
≥ 8.00

Tell me pIC50 reported for [2H]C([2H])([2H])n1c(=O)n([C@@H]2CC[C@@H](NC(=O)OC)C2)c2cc(Nc3ccc4c(n3)c(-c3cnn(C(F)(F)F)c3)nn4CC(C)(C)O)ncc21
≥ 8.00

Tell me pIC50 reported for Cn1c(=O)n(C2CCCC2)c2cc(Nc3cc(NC(=O)OC4CCC4)cc(-c4cnn(C5CC5)c4)c3)ncc21
6.30 to 7.00

Tell me pIC50 reported for [2H]C([2H])([2H])n1c(=O)n([C@@H]2CC[C@@](C)(NC(=O)C3CC3)C2)c2cc(Nc3cc(C(=O)N4CCOCC4)c4cccc(C(F)(F)F)c4n3)ncc21
≥ 8.00

Tell me pIC50 reported for [2H]C([2H])([2H])n1c(=O)n([C@@H]2CC[C@@H](NC(=O)OC)C2)c2cc(Nc3cccc(-n4cc(C(F)(F)F)cn4)n3)ncc21
≥ 8.00

Tell me pIC50 reported for COC(=O)N[C@@H]1CC[C@@H](n2c(=O)n(C)c3cnc(Nc4cccc(-c5ccc(OC)nc5)n4)cc32)C1
≥ 8.00

Tell me pIC50 reported for COC(=O)Nc1cc(Nc2cc3c(cn2)n(C)c(=O)n3[C@H]2C[C@](C)(NC(=O)OC)C2)cc(-c2cnn(C)c2)c1
6.30 to 7.00

* * *

Consider the following molecules; for each one, report its pIC50.
# tested.target: pseudo-kinase domain (JH2, amino-acids 536-812) of human Wild Type JAK2 (Homo sapiens, UniProt O60674, F794H/W659A/W777A)
# Construct: pseudo-kinase domain (JH2, amino-acids 536-812 with 3 surface mutations W659A, W777A, F794H); His (C)
# Sequence (O60674 536-812 W659A/W777A/F794H): as the sequence (O60674 536-812 V617F/W659A/W777A/F794H) above, with F82V counted along it
# protocol.description: JAK2 LanthaScreen JH2-WT Binding Assay
# study.conditions: JAK2 JH2-WT 0.145 nM, 50 nM tracer, 1 hour at 25° C.; read-out: JH2 BIND WT
pIC50: −log10 of the molar value.

Tell me pIC50 reported for [2H]C([2H])([2H])n1c(=O)n([C@]2([2H])CC[C@@H](NC(=O)OC)C2)c2cc(Nc3cc(C(C)(C)O)cc(-c4ncc(C(F)(F)F)s4)n3)ncc21
≥ 8.00

Tell me pIC50 reported for COC(=O)N[C@@H]1CC[C@@H](n2c(=O)n(C)c3cnc(Nc4cccc(-c5ccc6c(c5)OCCN6C)n4)cc32)C1
≥ 8.00

Tell me pIC50 reported for COC(=O)Nc1cc(Nc2cc3c(cn2)n(C)c(=O)n3[C@@H]2CC[C@@H](NC(=O)OC)C2)cc(-c2cn(C)nn2)c1
≥ 8.00

Tell me pIC50 reported for COC(=O)N[C@@H]1CC[C@@H](n2c(=O)n(C)c3cnc(Nc4cc(NC(=O)OC5CCC5)cc(C5CCOCC5)c4)cc32)C1
< 6.00

Tell me pIC50 reported for [2H]C([2H])([2H])n1c(=O)n([C@@H]2CC[C@@H](NC(=O)OC)C2)c2cc(Nc3cc(C(=O)N4CCOCC4)cc(-c4ccc5c(c4)OCCO5)n3)ncc21
≥ 8.00

Tell me pIC50 reported for COC(=O)N[C@@H]1CC[C@@H](n2c(=O)n(C)c3cnc(Nc4cc(NC(=O)C5(F)CCOCC5)cc(-c5cccc(C#N)c5)c4)cc32)C1
≥ 8.00

Tell me pIC50 reported for Cn1c(=O)n(C2CCCC2)c2cc(Nc3cc(NC(=O)OC4CCC4)cc(-c4cnn(C5CC5)c4)c3)ncc21
7.00 to 8.00

Tell me pIC50 reported for [2H]C([2H])([2H])n1c(=O)n([C@@H]2CC[C@@H](NC(=O)OC)C2)c2cc(Nc3cc(C(=O)N4CCCC(F)(F)C4)c4cccc(C(F)(F)F)c4n3)ncc21
≥ 8.00

Tell me pIC50 reported for COC(=O)N[C@@H]1CC[C@@H](n2c(=O)n(C)c3cnc(Nc4cccc(-c5ccc(CO)c(C)c5)n4)cc32)C1
≥ 8.00

Tell me pIC50 reported for COC(=O)Nc1cc(Nc2cc3c(cn2)n(C)c(=O)n3[C@H]2C[C@H](C#N)C2)cc(-c2cnn(C)c2)c1
7.00 to 8.00

Tell me pIC50 reported for [2H]C([2H])([2H])n1c(=O)n([C@@H]2CC[C@@H](NC(=O)OC)C2)c2cc(Nc3ccnc(-c4ccnc(OC)c4)n3)ncc21
≥ 8.00

Tell me pIC50 reported for COC(=O)N[C@@H]1CC[C@@H](n2c(=O)n(C)c3cnc(Nc4cccc(-c5ccc6[nH]nc(C)c6c5)n4)cc32)C1
≥ 8.00

Tell me pIC50 reported for COC(=O)Nc1cc(Nc2cc3c(cn2)n(C)c(=O)n3C2CC3(C2)CN(C(=O)OC)C3)cc(-c2cnn(C)c2)c1
6.30 to 7.00

Tell me pIC50 reported for [2H]C([2H])([2H])n1c(=O)n([C@@H]2CC[C@@H](NC(=O)OC)C2)c2cc(Nc3cccc(C4CC4)n3)ncc21
≥ 8.00

Tell me pIC50 reported for [2H]C([2H])([2H])n1c(=O)n([C@@H]2CC[C@@H](NC(=O)OC)C2)c2cc(Nc3ccc4c(n3)c(-c3cnn(C(F)(F)F)c3)nn4CC(C)(C)O)ncc21
≥ 8.00

Tell me pIC50 reported for [2H]C([2H])([2H])n1c(=O)n([C@@H]2CC[C@@H](NC(=O)OC)C2)c2cc(Nc3cc(C(=O)N4CCOCC4)cc(-c4ccc(C(F)F)s4)n3)ncc21
≥ 8.00

Tell me pIC50 reported for COC(=O)N[C@@H]1CC[C@@H](n2c(=O)n(C)c3cnc(Nc4cccc(N5CCC(N)C5)n4)cc32)C1 (stereo partly shown)
7.00 to 8.00

Tell me pIC50 reported for COC(=O)N[C@@H]1CC[C@@H](n2c(=O)n(C)c3cnc(Nc4ccc5ncc(-c6cnn(C)c6)n5n4)cc32)C1
≥ 8.00

Tell me pIC50 reported for [2H]C([2H])([2H])n1c(=O)n([C@@H]2CC[C@@H](NC(=O)OC)C2)c2cc(Nc3cc(-c4cnccc4C(F)(F)F)cc(-c4ccc(C(F)F)s4)n3)ncc21
≥ 8.00
